protocol-summary: ACEA_ER_80hr: ACEA Biosciences xCELLigence Real-Time Cell Analysis on Estrogen Receptor Agonism for Proliferation (AID 2282667)
run-conditions: T47D proliferation, impedance (xCELLigence), 80 h
Results filed as inconclusive are left out. Active and inactive are the calls of the source. The calls were made as follows: active = hit-call score of the fitted dose curve at least 0.9, where 1 is the maximum; inconclusive = response in the unintended direction; inactive = score below 0.9.
Possible outcomes: Yes (active), No (inactive)

• C[C@]12C=CC(=O)C=C1CC[C@H]1[C@@H]3C[C@@H](O)[C@](O)(C(=O)CO)[C@@]3(C)C[C@H](O)[C@@]12F = Yes
• COc1cc(C(C)C)c2c(c1)S(=O)(=O)N(COc1cc(=O)n3cccc(OCCN4CCCCC4)c3n1)C2=O = No
• O=C(O)[C@H](O)[C@@H](O)C(=O)O = No
• O=C(NO)C1(NS(=O)(=O)c2ccc(Oc3ccc(F)cc3)cc2)CCOCC1 = No
• CCCCC(CC)C(=O)OCCOCCOCCOC(=O)C(CC)CCCC (stereo unspecified) = No
• OCCOCCOCCO = No
• OC[C@H]1O[C@@](CO)(O[C@H]2O[C@H](CO)[C@@H](O)[C@H](O)[C@H]2O)[C@@H](O)[C@@H]1O = No
• CCCCCCCCCCCCCCO = No
• CCCCCCCCN(C)C = No
• CC(C)CCCCCCOC(=O)C1CCCCC1C(=O)OCCCCCCC(C)C (stereo unspecified) = No
• CC[C@H](C)C(=O)O[C@H]1C[C@H](O)C=C2C=C[C@H](C)[C@H](CC[C@@H](O)C[C@@H](O)CC(=O)O)[C@H]21 = No
• OC(Cn1cncn1)(Cn1cncn1)c1ccc(F)cc1F = No
• CCOc1ccc2[nH]cc(C(=O)NCc3ccccc3)c(=O)c2n1 = Yes
• Cc1ccc(S(=O)(=O)NC(=O)NN2CCCCCC2)cc1 = No
• Cc1nc(-c2ccccn2)ncc1C(=O)Nn1cc(C)c2cc(F)ccc21 = No
• CCn1nc(C)c2c1C(=O)NCC(c1ccc(O)cc1)=N2 = No
• OCC(CO)(CO)CO = No
• NNC(=O)c1ccncc1 = No
• C[C@@H](Oc1ccc(CNC(=O)c2cccnc2Oc2ccc3c(c2)OCO3)c(F)c1)C(=O)O = No
• O=c1[nH]cnc2c1ncn2[C@H]1CC[C@@H](CO)O1 = No
• O=C(O)c1cccc(C[C@@H]2COc3ccc(OCc4nc5cc(F)ccc5s4)cc3[C@@H]2O)c1 = No

* * *

Read-out: MYC, MYC (gene 4609)
protocol-summary: LTEA_HepaRG_MYC: Life Technologies and Expression Analysis (LTEA) Assay for MYC using HepaRG (AID 2283518)
run-conditions: mRNA level, 48 h; actives raise or lower the signal
Active and inactive are the calls of the source. The calls were made as follows: active = hit-call score of the fitted dose curve at least 0.9, where 1 is the maximum; inactive = score below 0.9.
Possible outcomes: active, inactive

* CC(C)CCCCCCOC(=O)C1CCCCC1C(=O)OCCCCCCC(C)C (stereo unspecified) | inactive
* NC(N)=O | inactive
* CCCOc1ccc(S(=O)(=O)N2CCN(CC)CC2)cc1-c1nc2c(CC)n(Cc3ccccn3)nc2c(=O)[nH]1 | inactive
* CC(=O)c1ccccc1 | inactive
* Cn1c(=O)c2[nH]cnc2n(C)c1=O | inactive
* COc1cc2c(c(OC)c1OC)-c1ccc(OC)c(=O)cc1[C@@H](NC(C)=O)CC2 | active

* * *

protocol-summary: ATG_GRE_CIS: Attagene CIS-FACTORIAL HepG2 Assay for human Glucocorticoid Response Elements (GRE) (AID 2282947)
run-conditions: HepG2 GRE cis-reporter, Attagene multiplex mRNA; actives raise or lower the signal
Activity calls are given as the source filed them. The calls were made as follows: active = hit-call score of the fitted dose curve at least 0.9, where 1 is the maximum; inactive = score below 0.9.
quantity-kind: outcome

- CCn1nc(C)c2c1C(=O)NCC(c1ccc(O)cc1)=N2: inactive
- CC(C)CCCCCCOC(=O)C1CCCCC1C(=O)OCCCCCCC(C)C (centres undefined): inactive
- CCCC(CCC)C(=O)O: inactive
- C[Si](C)(C)C(F)(F)C(F)(F)C(F)(F)F: inactive
- COS(C)(=O)=O: inactive
- O=C(O)[C@H](O)[C@@H](O)C(=O)O: inactive
- NC(=O)NN=Cc1ccc([N+](=O)[O-])o1: inactive
- C=CCc1cc(S(=O)(=O)c2ccc(O)c(CC=C)c2)ccc1O: inactive
- OCc1ccccc1: inactive

* * *

protocol-summary: ATG_PPRE_CIS: Attagene CIS-FACTORIAL HepG2 Assay for human Peroxisome Proliferator-activated Response Element (PPRE) (AID 2282958)
run-conditions: HepG2 PPRE cis-element reporter, Attagene transcription factor profiling; actives raise or lower the signal
Activity calls are given as the source filed them. The calls were made as follows: active = hit-call score of the fitted dose curve at least 0.9, where 1 is the maximum; inactive = score below 0.9.
Possible outcomes: active, inactive

- CC[C@H](C)C(=O)O[C@H]1C[C@H](O)C=C2C=C[C@H](C)[C@H](CC[C@@H](O)C[C@@H](O)CC(=O)O)[C@H]21: inactive
- O=S1(=O)CCCO1: inactive
- CCCCCCCCCC: inactive
- CCn1nc(C)c2c1C(=O)NCC(c1ccc(O)cc1)=N2: inactive
- c1ccc(C(O[C@@H]2CCCN(CCc3ccc4c(c3)OCO4)C2)c2ccccc2)cc1: inactive
- OCC(CO)(CO)CO: inactive
- O=C(O)c1ccc2c(c1)nc(C(=O)NC1CCN(C3CC3)CC1)n2Cc1cc(-c2ccc(Cl)s2)on1: active
- NC(N)=O: inactive
- CCCCOC(=O)c1ccccc1: inactive
- NCC(F)(F)C(F)(F)C(F)(F)C(F)(F)F: inactive
- O=C(O)c1cccc(C(=O)O)c1: inactive
- Cc1ccc(S(=O)(=O)NC(=O)NN2CCCCCC2)cc1: inactive
- Cc1cccc(O)c1C: inactive

* * *

target-desc: Estrogen receptor beta (Homo sapiens)
protocol-summary: OT_ER_ERbERb_0480: Odyssey Thera (OT) 8-hour HEK293T Protein-Complementation Assay for Estrogen Receptor-beta/-beta Homodimer (AID 2283357);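 also: active means signal gain over DMSO baseline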
Records with an inconclusive call do not appear. Active and inactive are the calls of the source. Rule for the calls: active = hit-call score of the fitted dose curve at least 0.9, where 1 is the maximum; inconclusive = response in the unintended direction; inactive = score below 0.9.
quantity-kind: outcome

* Cc1ccc(S(=O)(=O)NC(=O)NN2CCCCCC2)cc1 | inactive
* Cc1cccc(O)c1C | inactive
* Cc1nc(-c2ccccn2)ncc1C(=O)Nn1cc(C)c2cc(F)ccc21 | inactive
* Cc1ncc([C@@H](CCCCCCc2ccc3c(n2)NCCC3)CC(=O)O)cn1 | inactive
* CNC(C)=O | inactive

* * *

Read-out: Collagen III, COL3A1 (gene 1281)
protocol-summary: BSK_hDFCGF_CollagenIII: BioMAP Diversity Plus: hDFCGF Assay for Collagen III Biomarker Activity (AID 2283056)
run-conditions: primary human foreskin fibroblasts; actives raise or lower the signal
The source made the active and inactive calls. The calls were made as follows: active = hit-call score of the fitted dose curve at least 0.9, where 1 is the maximum; inactive = score below 0.9.
quantity-kind: AC50

- OCCNCCO: inactive
- CCCCCCCCN(C)C: inactive
- O=S1(=O)CCCO1: inactive
- COc1cc2c(c(OC)c1OC)-c1ccc(OC)c(=O)cc1[C@@H](NC(C)=O)CC2: inactive
- CCOC(N)=O: inactive
- CC(C)C(=O)Nc1ccc([N+](=O)[O-])c(C(F)(F)F)c1: 31.7 µM (active)
- Cc1ncc([C@@H](CCCCCCc2ccc3c(n2)NCCC3)CC(=O)O)cn1: inactive

* * *

Read-out: Lipoprotein lipase (LPL), LPL (gene 4023)
protocol-summary: LTEA_HepaRG_LPL: Life Technologies and Expression Analysis (LTEA) Assay for Lipoprotein lipase (LPL) using HepaRG (AID 2283515)
run-conditions: mRNA level, 48 h; actives raise or lower the signal
The source made the active and inactive calls. Rule for the calls: active = hit-call score of the fitted dose curve at least 0.9, where 1 is the maximum; inactive = score below 0.9.
Possible outcomes: active, inactive

- CCc1ccc(O)c(C(C)(C)C)c1: inactive
- CC(C)CCCCCCOC(=O)C1CCCCC1C(=O)OCCCCCCC(C)C (stereo not drawn): active
- CCCCCCCCN(C)C: inactive
- C[C@@H](Oc1ccc(CNC(=O)c2cccnc2Oc2ccc3c(c2)OCO3)c(F)c1)C(=O)O: inactive
- c1ccc2ncccc2c1: inactive
- O=S(=O)(O)c1ccc(N=Nc2c(O)ccc3cc(S(=O)(=O)O)ccc23)cc1: inactive
- COS(C)(=O)=O: inactive
- CC(=O)c1ccccc1: inactive
- Cc1ncc([C@@H](CCCCCCc2ccc3c(n2)NCCC3)CC(=O)O)cn1: active
- O=C(NO)C1(NS(=O)(=O)c2ccc(Oc3ccc(F)cc3)cc2)CCOCC1: active
- COc1cc(C(C)C)c2c(c1)S(=O)(=O)N(COc1cc(=O)n3cccc(OCCN4CCCCC4)c3n1)C2=O: active
- NC(=O)N(O)[C@@H]1COc2cc(OCc3ccccc3)ccc21: inactive
- O=C(O)c1cccc(C[C@@H]2COc3ccc(OCc4nc5cc(F)ccc5s4)cc3[C@@H]2O)c1: inactive
- CCCCN1C(=O)[C@@H]([C@H](O)C2CCCCC2)NC(=O)C12CCN(Cc1ccc(Oc3ccc(C(=O)O)cc3)cc1)CC2: active
- CCOc1ccc2[nH]cc(C(=O)NCc3ccccc3)c(=O)c2n1: inactive
- OCCNCCO: inactive
- c1ccc(C(O[C@@H]2CCCN(CCc3ccc4c(c3)OCO4)C2)c2ccccc2)cc1: inactive
- COc1cc2c(c(OC)c1OC)-c1ccc(OC)c(=O)cc1[C@@H](NC(C)=O)CC2: active
